The measured values listed here are drawn from the supplement of paper PMC8728848.

TARGET_UNDER_TEST: Fuc(a1-2)Gal(b1-3)GalNAc(b1-3)Gal(b1-4)Glc
ASSAY_DETAILS: glycan array binding signal (z-score within array); higher = stronger binding
TEST_PARAMETERS: glycan notation: IUPAC condensed, linker removed
Only a selection was taken, and the strongest signals are over-represented in it overall.
Hi, to clarify the labels: Condition met covers glycan array binding signal (z-score) from 4 upward, Condition not met covers anything below 4.

{"columns": ["BINDER", "ANSWER_LABEL"],
 "data": [
  ["T7P4 (Tuber borchii) (protein) GSHIGPYMSFYASSEDVRTIEEGGRTWLVGRARRADGSWQDIKLDLDNIIGNRDGHLTWGEQNFTQSASDIRFNFEGSNVPVLRAKLRNAAGGEQESDLNLGERLTNNNGDLVFN", "Condition met"]
]}

In the following, a different binder is considered.
Threshold query (glycan array binding signal (z-score) >= 4) on Gal 2 (Homo sapiens), P05162 (protein) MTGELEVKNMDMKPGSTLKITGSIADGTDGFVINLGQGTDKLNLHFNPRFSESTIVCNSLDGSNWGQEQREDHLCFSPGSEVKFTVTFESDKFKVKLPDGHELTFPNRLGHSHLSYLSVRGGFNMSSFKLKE
Condition not met
